test system: Danio rerio larvae (5 dpf); assay: excitability to 1-s acoustic pulses, difference vs DMSO (percentage points (treated minus DMSO)); higher = more of the behaviour than the DMSO vehicle control; conditions: 10 µM; exposure time: 3 h pre-incubation + 3 h imaging
Structures can show the parent of a compound that is named as a salt.
MEASUREMENT_TYPE: excitability to 1-s acoustic pulses

>>> observed_value("NC(=O)c1ncn([C@@H]2O[C@H](CO)[C@@H](O)[C@H]2O)n1")
-0.206
>>> observed_value("CCCCc1nc(Cl)c(CO)n1Cc1ccc(-c2ccccc2-c2nnn[nH]2)cc1")
5.58
>>> observed_value("CCOC(=O)[C@H](CCc1ccccc1)N[C@H]1CCc2ccccc2N(CC(=O)O)C1=O [Benazepril hydrochloride]")
0.498
>>> observed_value("Nc1nc2c(ncn2COCCO)c(=O)[nH]1")
0.524
